Reported cell growth compared to control conditions (100%), in brackets is given for each of the following compounds.
test system: T24 cells; assay: Clonogenic assay; type: cell-based, human; settings: T24 cells, 1.25 µM
PARAMETER_MEASURED: cell growth compared to control conditions (100%), in brackets

COMPOUND | ENDPOINT_RESULT
Cc1ccc2c(c1)SC1=NC3=C(C(=O)c4ccccc4C3=O)C(C)(O)N12 (stereo not shown) | 11
COc1ccc2c(c1)SC1=NC3=C(C(=O)c4ccccc4C3=O)C(C)(O)N12 (stereo not shown) | 36
CCCC1(O)C2=C(N=C3Sc4cc(C)ccc4N31)C(=O)c1ccccc1C2=O (stereo not shown) | 39
CCCC1(O)C2=C(N=C3Sc4cc(OC)ccc4N31)C(=O)c1ccccc1C2=O (stereo not shown) | 55
